Just for reference, patent US10040781B2 is where these values come from.

A set of molecules tested on hJAK2 (Homo sapiens (Human), UniProt O60674), with measured pIC50:
Schema: pIC50 number; meaning minus log10 of the concentration expressed in molar units.

CN1CCN(c2ccc(Nc3ncnc(-c4ccc(O[C@@H]5CCN(C(=O)CO)C5)c(C#N)c4)n3)cc2)CC1    6.34

# input for lookup
Please tell me: pIC50 of `COc1cc(Nc2ncnc(-c3ccc(OC4CCOCC4)c(C#N)c3)n2)ccc1N1CCN(C2COC2)CC1` , system hJAK2 (Homo sapiens (Human), UniProt O60674)?
6.90

---

target: TBK1 (Homo sapiens (Human)); assay: TBK1 TR-FRET enzymatic assay
Sequence (Q9UHD2 whole entry): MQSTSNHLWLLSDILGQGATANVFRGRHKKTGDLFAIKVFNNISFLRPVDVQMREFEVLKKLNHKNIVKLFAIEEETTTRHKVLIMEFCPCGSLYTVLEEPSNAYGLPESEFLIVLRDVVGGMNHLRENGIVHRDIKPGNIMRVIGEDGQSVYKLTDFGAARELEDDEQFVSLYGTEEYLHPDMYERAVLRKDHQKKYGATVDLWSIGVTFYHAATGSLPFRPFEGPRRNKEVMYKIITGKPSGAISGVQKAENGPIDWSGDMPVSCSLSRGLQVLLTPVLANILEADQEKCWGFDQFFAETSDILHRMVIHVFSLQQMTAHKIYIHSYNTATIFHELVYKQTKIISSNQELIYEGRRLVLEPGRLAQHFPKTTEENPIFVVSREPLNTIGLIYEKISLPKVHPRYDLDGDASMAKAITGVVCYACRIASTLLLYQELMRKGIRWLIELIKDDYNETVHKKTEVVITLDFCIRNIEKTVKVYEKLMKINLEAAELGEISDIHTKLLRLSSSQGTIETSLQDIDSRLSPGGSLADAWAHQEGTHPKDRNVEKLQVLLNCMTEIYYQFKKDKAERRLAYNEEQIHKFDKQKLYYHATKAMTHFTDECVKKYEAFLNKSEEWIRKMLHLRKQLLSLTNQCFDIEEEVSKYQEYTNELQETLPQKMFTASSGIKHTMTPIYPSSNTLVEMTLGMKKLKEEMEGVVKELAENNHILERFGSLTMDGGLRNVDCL
pIC50: −log10 of the molar value.
measurement type: pIC50

The following molecules have reported results that may help.
C[C@H](O)C(=O)N1CC[C@H](Nc2ccc(-c3ncnc(Nc4ccc(N5CCN(C6COC6)CC5)cc4)n3)cc2C#N)[C@H](F)C1 [Example 613]    6.89
C[C@H](O)C(=O)N1CC[C@H](Oc2ccc(-c3ncnc(Nc4ccc(N5CCN(C6COC6)C[C@@H]5C)cc4)n3)cc2C#N)C(F)(F)C1 [Example 252]    8.52
N#Cc1cc(-c2ncnc(Nc3ccc(N4CCN(C5COC5)CC4)cc3)n2)ccc1N1CCC2(CCOCC2)C1 [Example 212]    7.54

A. Cc1cc(Nc2ncnc(-c3ccc(O[C@H]4CCN(C(=O)CCO)C[C@H]4F)c(C#N)c3)n2)ccc1N1CCN(C2COC2)CC1 [Example 533]
B. C[C@H]1C[C@H](Oc2ccc(-c3ncnc(Nc4ccc(N5CCN(C6COC6)CC5)cc4)n3)cc2C#N)[C@H](F)CN1C(=O)CO [Example 115]
Kindly compare A with B and tell me which has the lower pIC50 figure. Which one? Tell me its label.
B
(B: 7.92, A: 8.40)

a. C[C@H](O)C(=O)N1CC[C@H](Oc2ccc(-c3ncnc(Nc4ccc(N5CCN(C6COC6)CC5)nc4)n3)cc2C#N)[C@H](F)C1 [Example 379]
b. CCn1cc(Nc2ncnc(-c3ccc(O[C@H]4CCN(C(=O)CO)C[C@H]4F)c(C#N)c3)n2)cn1 [Example 360]
Please let me know which one, a or b , has a lower measured pIC50 value. Pick one; state its label.
a

P. COc1cc(Nc2ncnc(-c3ccc(O[C@@H]4CCC(=O)NC4)c(C#N)c3)n2)ccc1N1CCN(C2COC2)CC1 [Example 531]
Q. N#CCC(=O)N1CCC(Oc2ccc(-c3ncnc(Nc4ccc(N5CCN(C6COC6)CC5)cc4)n3)cc2C#N)CC1 [Example 44]
R. CC(C)(C)n1cc(Nc2ncnc(-c3ccc(O[C@H]4CCN(C(=O)CO)C[C@H]4F)c(C#N)c3)n2)cn1 [Example 420]
hey, can you rank those molecules up there by pIC50? biggest number first please Your reply should list the labels following the order given in the request.
R, P, Q
(R: 8.70, P: 8.40, Q: 8.05)

---

biological target: IKKε (Homo sapiens (Human), UniProt Q14164); experiment: IKKε TR-FRET enzymatic assay; type: biochemical; conditions: read-out: IKKe IC50
Sequence (Q14164 whole entry): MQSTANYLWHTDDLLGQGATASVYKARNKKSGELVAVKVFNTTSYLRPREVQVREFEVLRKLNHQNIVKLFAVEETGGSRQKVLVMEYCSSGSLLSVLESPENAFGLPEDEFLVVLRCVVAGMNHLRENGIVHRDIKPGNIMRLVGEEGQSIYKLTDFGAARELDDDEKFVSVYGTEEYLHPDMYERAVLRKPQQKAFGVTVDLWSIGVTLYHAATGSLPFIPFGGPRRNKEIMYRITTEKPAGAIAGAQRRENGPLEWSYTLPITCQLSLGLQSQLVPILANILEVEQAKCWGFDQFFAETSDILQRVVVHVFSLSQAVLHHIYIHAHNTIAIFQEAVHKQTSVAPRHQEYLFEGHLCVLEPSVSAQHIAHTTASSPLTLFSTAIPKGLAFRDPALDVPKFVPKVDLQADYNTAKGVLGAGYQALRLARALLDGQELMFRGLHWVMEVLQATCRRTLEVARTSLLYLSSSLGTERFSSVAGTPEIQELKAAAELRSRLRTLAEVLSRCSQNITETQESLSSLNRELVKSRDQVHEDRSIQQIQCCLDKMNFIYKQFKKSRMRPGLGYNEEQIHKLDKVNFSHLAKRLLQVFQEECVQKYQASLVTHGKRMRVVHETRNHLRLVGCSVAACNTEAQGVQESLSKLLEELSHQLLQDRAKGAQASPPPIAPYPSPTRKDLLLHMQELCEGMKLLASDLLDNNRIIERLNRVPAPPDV
measurement type: IC50 (nM)

For orientation, consider the following solved cases.
Cc1cc(Nc2ncnc(-c3ccc(O[C@H]4CCN(C(=O)CO)C[C@H]4F)c(C#N)c3)n2)ccc1N1CCN(C2COC2)CC1 [Example 394]    1
N#Cc1cc(-c2ncnc(Nc3ccc(N4CCN(C5COC5)CC4)cc3)n2)ccc1O[C@H]1CCN(C(=O)c2ccnnc2)C[C@H]1F [Example 338]    18
N#Cc1cc(-c2ncnc(Nc3ccc(N4CCN(C5COC5)CC4)cc3)n2)ccc1OC1C2CC1CN(C(=O)CO)C2 (stereo not shown) [Example 172]    676
CC(C)NC(=O)c1ccc(Nc2ncnc(-c3ccc(O[C@@H]4CCN(C(=O)CO)C4)c(C#N)c3)n2)cc1 [Example 83]    14

I. N#Cc1cc(-c2ncnc(Nc3ccc(N4CCN(C5CCOCC5)CC4)c(F)c3)n2)ccc1O[C@H]1CCN(C(=O)CO)C[C@H]1F [Example 307]
II. C[C@H](O)C(=O)N1CC[C@H](Oc2ccc(-c3ncnc(Nc4ccc(N5CCN(C6COC6)CC5)c(F)c4)n3)cc2C#N)[C@H](F)C1 [Example 367]
III. N#Cc1cc(-c2ncnc(Nc3ccc(N4CCN(C=O)CC4)c(F)c3)n2)ccc1O[C@H]1CCOC[C@H]1F [Example 299]
Please produce an ascending ranking of these compounds based on IC50. List each label, following the requested order.
I, II, III
(I: 1 nM, II: 2 nM, III: 8 nM)

---

Recorded below: pIC50, system hJAK2 (Homo sapiens (Human), UniProt O60674).
pIC50: −log10 of the molar value.
measurement type: pIC50

N#Cc1cccc(-c2ncnc(Nc3ccc(N4CCN(C5COC5)CC4)cc3)n2)c1    6.18

A. N#Cc1cc(-c2ncnc(Nc3ccc(N4CCN(C5COC5)CC4)c(F)c3)n2)ccc1O[C@H]1CCN(C(=O)c2cnn[nH]2)C[C@H]1F
B. N#Cc1cc(-c2ncnc(Nc3cccc(N4CCOCC4)c3)n2)ccc1O[C@@H]1CCN(C(=O)CO)C1
Pick the one with the larger pIC50: A vs B Respond using the label that marks the chosen record.
A
(A: 6.84, B: 6.54)

---

target: TBK1 (Homo sapiens (Human)); assay: TBK1 TR-FRET enzymatic assay;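 further: phosphorylation of a biotinylated Ser/Thr peptide by purified full-length recombinant TBK1, read by TR-FRET after 240 min at 25 °C, IC50 is the geometric mean of at least four runs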
pIC50: −log10 of the molar value.
measurement type: pIC50

COc1cccc(Nc2ncnc(-c3ccc(OC4CCOCC4)c(C#N)c3)n2)c1 [Example 78]    8.22

A. N#Cc1cc(-c2ncnc(Nc3ccc(N4CCN(C5COC5)CC4)cc3)n2)ccc1O[C@H]1CN(C(=O)CO)CC1(F)F (single isomer, unassigned) [Example 195]
B. N#Cc1cc(-c2ncnc(Nc3ccc(N4CCN(C5COC5)CC4)cc3)n2)ccc1N1CCCC1 [Example 10]
Of A and B , which carries the smaller reported pIC50 figure? Answer format: the label of the selected item.
B

I. C[C@H](O)C(=O)N1CCC[C@@H](Oc2ccc(-c3ncnc(Nc4ccc(N5CCN(C6COC6)CC5)cc4)n3)cc2C#N)C1 [Example 126]
II. N#Cc1cc(-c2ncnc(Nc3ccc(N4CCN5CCOC[C@H]5C4)cc3)n2)ccc1O[C@H]1CCN(C(=O)[C@@H]2CCC(=O)N2)C[C@H]1F [Example 466]
III. N#Cc1cc(-c2ncnc(Nc3ccc(N4CCN(C5COC5)CC4)cc3)n2)ccc1O[C@H]1CCOC1 [Example 216]
IV. C[C@@H]1CN(c2ccc(Nc3ncnc(-c4ccc(O[C@@H]5CCN(C(=O)[C@@H](C)O)CC5(F)F)c(C#N)c4)n3)cc2)CCN1C1COC1 [Example 247]
Rank ascending by pIC50. Please respond with the labels ordered as the question requires.
IV, I, III, II

A. N#Cc1cc(-c2ncnc(Nc3ccc(N4CCN(C5COC5)CC4)cc3)n2)ccc1O[C@@H]1CCNC[C@H]1F [Example 236]
B. C[C@@H]1CN(c2ccc(Nc3ncnc(-c4ccc(O[C@H]5CCN(C(=O)[C@@H]6CCC(=O)N6)C[C@H]5F)c(C#N)c4)n3)cc2)CCN1C1COC1 [Example 542]
Compare reported pIC50 values for A and B . Which is lower? Pick one and reply with its label.
A
(A: 7.24, B: 8.22)

P. N#Cc1cc(OC[C@H]2CCN(C(=O)CO)C2)cc(-c2ncnc(Nc3ccc(N4CCN(C5COC5)CC4)cc3)n2)c1 [Example 591]
Q. N#Cc1cc(-c2ncnc(Nc3ccc(N4CCN(C5COC5)CC4)cc3)n2)ccc1OC1CCCN(C(=O)CO)CC1 (stereo not drawn) [Example 97]
R. N#Cc1cc(-c2ncnc(Nc3ccc(N4CCN(C5COC5)CC4)cc3)n2)ccc1OCC1(C#N)COC1 [Example 491]
Rank ascending by pIC50. // respond by listing labels in the order requested
P, R, Q
(P: 6.32, R: 7.60, Q: 7.96)

P. N#Cc1cc(-c2ncnc(Nc3ccc(N4CCN(C5COC5)CC4)cc3)n2)ccc1N1CC[C@@H](O)C1 [Example 202]
Q. C[C@H]1C[C@@H](Oc2ccc(-c3ncnc(Nc4ccc(N5CCN(C6COC6)CC5)cc4)n3)cc2C#N)CCN1C(=O)c1cnn[nH]1 [Example 188]
R. COC[C@@H](O)C(=O)N1CC[C@H](Oc2ccc(-c3ncnc(Nc4ccc(N5CCN(C6COC6)CC5)cc4)n3)cc2C#N)[C@H](F)C1 [Example 617]
Let's sort these by pIC50, smallest first. Go ahead? Returns: the labels arranged in the requested order.
R, Q, P

1. CS(=N)(=O)c1ccc(Nc2ncnc(-c3ccc(O[C@H]4CCN(C=O)CC4(F)F)c(C#N)c3)n2)cc1 (stereo partly drawn) [Example 482]
2. N#Cc1cc(-c2ncnc(Nc3ccc(N4CCN(C5COC5)CC4)cc3)n2)ccc1OCCNC(=O)c1cccnc1 [Example 598]
3. N#Cc1cc(-c2ncnc(Nc3ccc(N4CCN(C5COC5)CC4)cc3)n2)ccc1O[C@H]1CCN(C(=O)[C@@H](O)CO)CC1(F)F [Example 581]
4. N#Cc1cc(-c2ncnc(Nc3ccc(N4CCOCC4)cc3)n2)ccc1O[C@@H]1CCNC1 [Example 80]
5. N#Cc1cc(-c2ncnc(Nc3ccc(N4CCOCC4)cc3)n2)ccc1NC(=O)C1CC1 [Example 42]
Arrange these 5 compounds in increasing order of pIC50. Give me the labels in the order the question wants.
2, 5, 4, 1, 3

1. N#Cc1cc(-c2ncnc(Nc3ccc(N4CCN(C5COC5)CC4)cc3)n2)ccc1O[C@H]1CCN(C(=O)[C@@H]2CCCO2)C[C@H]1F [Example 504]
2. CC(C)(C)n1cc(Nc2ncnc(-c3ccc(O[C@H]4CCN(C(=O)[C@@H](O)CO)C[C@H]4F)c(C#N)c3)n2)cn1 [Example 419]
Field: lower pIC50 | Options: 1 / 2 Use the label to indicate which entry you chose.
1
(1: 8.40, 2: 8.70)

A. N#Cc1cc(-c2ncnc(Nc3cccc(N4CCOCC4)c3)n2)ccc1OC1CCOCC1 [Example 63]
B. COc1ccc(Nc2ncnc(-c3ccc(OC4CCOCC4)c(C#N)c3)n2)cn1 [Example 77]
Of the two listed items, A and B , which carries the larger pIC50 figure? Choose, then provide that item's label.
A
